Where do these numbers come from? They come from the supplement of paper PMC13380429.

tested on: Vero E6; assay: cell viability relative to DMSO; higher = less toxic; conditions: 72 h; 100 nM
# label = Y if cell viability < 90% else N

Solved entries (count: 3):
>  <Compound>
CN(C)c1ccc2c(c1)Sc1cc(N(C)C)ccc1N2

>  <Measured target>
Vero E6

>  <Category>
N

$$$$
>  <Compound>
N=C(N)NC(=O)Cc1c(Cl)cccc1Cl

>  <Measured target>
Vero E6

>  <Category>
N

$$$$
>  <Compound>
O=C(/C=C/c1ccc(CN(CCO)CCc2c[nH]c3ccccc23)cc1)NO

>  <Measured target>
Vero E6

>  <Category>
Y

$$$$

Now examine the next entry.
In plain terms, does CCOC(=O)c1cncn1[C@H](C)c1ccccc1 [etomidate] come in under 90% for cell viability?
N

###

Exercise: state measured cell viability for each of the compounds provided.
tested on: Vero E6; assay: cell viability relative to DMSO; higher = less toxic; settings: 72 h; 1 nM
Answers are plain numbers, in %.

// known answers, use as guide
>  <Compound>
Cc1noc(C)c1-c1ccc(-c2cc(C(N)=O)c(NC(N)=O)s2)c(O[C@H]2CCNC2)c1

>  <Display unit>
%

>  <Experimental value>
102

$$$$
>  <Compound>
Cc1c(Cc2ccc3ccccc3n2)c2cc(F)ccc2n1CC(=O)O

>  <Display unit>
%

>  <Experimental value>
102

$$$$
>  <Compound>
CCOc1cncc(/C=C/CCNC)c1

>  <Display unit>
%

>  <Experimental value>
94.1

$$$$
>  <Compound>
CN1c2ccccc2C(NCCCCCCC(=O)O)c2ccc(Cl)cc2S1(=O)=O (stereo unspecified)

>  <Display unit>
%

>  <Experimental value>
104

$$$$
>  <Compound>
COc1ccc(O)cc1

>  <Display unit>
%

>  <Experimental value>
96.8

$$$$

Would you be so kind as to report cell viability for each listed record?
1. CCCN1CCCC(c2cccc(O)c2)C1 (stereo in doubt)
2. CCc1ccc(CCOc2ccc(CC3SC(=O)NC3=O)cc2)nc1 (stereo unspecified)
3. CC(C)C[C@H](NC(=O)[C@H](CCCCN)NC(=O)[C@H](CCCNC(=N)N)NC(=O)[C@H](C)NC(=O)[C@H](CO)NC(=O)[C@H](CCCCN)NC(=O)[C@H](CCCNC(=N)N)NC(=O)[C@H](C)NC(=O)CNC(=O)[C@@H](NC(=O)[C@H](Cc1ccccc1)NC(=O)CNC(=O)CNC(=O)[C@@H](N)Cc1ccccc1)[C@@H](C)O)C(=O)N[C@@H](C)C(=O)N[C@@H](CC(N)=O)C(=O)N[C@@H](CCC(N)=O)C(=O)O
4. CNCCCC1(c2ccccc2)OC(C)(C)c2ccccc21 (stereo unspecified)
5. C[C@@H](NC(=O)[C@@H](N)Cc1ccc(O)cc1)C(=O)NCC(=O)N(C)[C@@H](Cc1ccccc1)C(=O)N[C@H](CO)CC[S+](C)[O-] (stereo partly specified)

1: 90.5; 2: 99; 3: 92.2; 4: 93.7; 5: 99.5

Would you be so kind as to report cell viability for each listed record?
1. CC(C)(N)c1cc(C(=O)N[C@@H]2CCc3ccc(Oc4ccnc5c4CCC(=O)N5)cc3C2)cc(C(F)(F)F)c1
2. C/C=C(/C(=C/C)c1ccc(O)cc1)c1ccc(O)cc1
3. CC(C)(C)C(=O)C(Oc1ccc(Cl)cc1)n1ccnc1 (stereo unspecified)
4. CCC[S+]([O-])c1ccc2[nH]c(NC(=O)OC)nc2c1 (stereo unspecified) [albendazole-oxide]
5. COc1cccc(C=NCCN=Cc2cccc(OC)c2[O-])c1[O-].[Cl-].[Mn+3]

1. 106
2. 101
3. 96.6
4. 103
5. 98.4

Would you be so kind as to report cell viability for each listed record?
1. O=c1c(-n2ccnn2)c[nH]n1-c1cc(N2CCOCC2)ncn1
2. CC(C)(C)C(=O)OCOC(=O)[C@@H]1N2C(=O)[C@@H](/N=C/N3CCCCCC3)[C@H]2SC1(C)C
3. COc1ccc(CC2NCCc3c2[nH]c2ccc(C)cc32)c(Cl)c1OC (stereo unspecified)

1. 108
2. 106
3. 99

Would you be so kind as to report cell viability for each listed record?
1. O=c1[nH]c([C@@H]2CCCN2)nc2c1oc1ccc(Cl)cc12
2. CCCCOCCOc1nc(-c2ccc(C(=O)O)c(F)c2)sc1C
3. CC(C)=CCc1c(O)cc(O)c2c(=O)c(O)c(-c3ccc(C(F)(F)F)cc3)oc12
4. Nc1ncc2c(n1)CC(c1ccco1)CC2=O (stereo unspecified)
5. O=C(O)/C=C/c1ccc(O)c(O)c1

1. 103
2. 100
3. 100
4. 101
5. 99.1

Would you be so kind as to report cell viability for each listed record?
1. O=C(COc1ccc(C(=O)c2ccccc2)cc1)NC1CCN(Cc2ccccc2)CC1
2. OC(CCN1CCCCC1)(c1ccccc1)C1CCCCC1 (stereo unspecified)
3. COC1CCN(C(=O)c2cc(Cc3n[nH]c(=O)c4ccccc34)ccc2F)CC1
4. CC(C)(C)c1ccc(-c2nc3ccccc3[nH]2)cc1
5. O=C(O)CCc1ccc(NCc2cccc3c2CCCN3CCOc2ccccc2)cc1F
6. CCCCN1CCC(CCC(=O)c2cc(Cl)c(N)cc2OC)CC1
7. CCCCCCCCCCCCC[N+](C)(C)Cc1ccccc1

[97.1, 103, 99.3, 92.8, 97.5, 101, 89]

Would you be so kind as to report cell viability for each listed record?
1. CC(=O)Nc1ccc(NC(=S)NC(=O)c2ccc(C(C)(C)C)cc2)cc1
2. CC(C)C[C@H](NC(=O)[C@@H](O)[C@H](N)Cc1ccccc1)C(=O)O
3. C[C@H](NC(=O)c1sccc1OCc1ccc(Cl)cc1)c1ccccc1
4. NC(=O)CN1CC[C@@H](NC(=O)[C@@H]2CCCN2)C1=O
5. Cn1ccc2cc3c(cc21)CCN3C(=O)Nc1cccnc1
6. CNC(=S)C1(c2ccccn2)CCCS1 (stereo unspecified) [picartamide]

1: 99.9; 2: 101; 3: 113; 4: 95.4; 5: 99.1; 6: 103

###

system: HepG2; test: cell viability relative to DMSO; higher = less toxic; conditions: 72 h; 1 nM
Exercise: state measured cell viability for each of the compounds provided.
One number for each entry, in %.

// known answers, use as guide
>  <Compound>
COc1ccc(CC2NCCc3c2[nH]c2ccc(C)cc32)c(Cl)c1OC (stereo not given)

>  <Display unit>
%

>  <Experimental value>
103

$$$$
>  <Compound>
CCCCCCCCCCCCC[N+](C)(C)Cc1ccccc1

>  <Display unit>
%

>  <Experimental value>
96.1

$$$$
>  <Compound>
CC(C)(N)c1cc(C(=O)N[C@@H]2CCc3ccc(Oc4ccnc5c4CCC(=O)N5)cc3C2)cc(C(F)(F)F)c1

>  <Display unit>
%

>  <Experimental value>
99.2

$$$$
>  <Compound>
CN1C(=O)CN=C(c2ccccc2)c2cc(Cl)ccc21

>  <Display unit>
%

>  <Experimental value>
94.8

$$$$
>  <Compound>
CCOC(=O)[C@@H](N)Cc1ccc(O)c(O)c1

>  <Display unit>
%

>  <Experimental value>
86.2

$$$$

Would you be so kind as to report cell viability for each listed record?
1. CCCC(C)C1(CC)C(=O)NC(=S)NC1=O (stereo not given)
2. CC1(C)OC2(C)C(O)CC1CC2O (stereo not given)
3. COC1CCN(C(=O)c2cc(Cc3n[nH]c(=O)c4ccccc34)ccc2F)CC1
4. O=S(=O)(O)c1cc(I)c(O)c2ncccc12
5. CCC1(c2ccccc2)C(=O)NCNC1=O

1: 102; 2: 99.9; 3: 99.5; 4: 111; 5: 112

###

test system: Calu-3; test: cell viability relative to DMSO; higher = less toxic; settings: 72 h; 10000 nM
Endpoint: cell viability (%)
Give bare numbers, in %.

>  <Compound>
CN(C)C(=O)[C@H](O)[C@H](Cc1ccccc1)NC(=O)c1cc2cc(Cl)ccc2[nH]1

>  <cell viability / %>
102

$$$$
>  <Compound>
O=C(O)[C@H](CC(=O)N1C[C@H]2CCCC[C@H]2C1)Cc1ccccc1 [mitiglinide]

>  <cell viability / %>
104

$$$$
>  <Compound>
COc1cccc(C=NCCN=Cc2cccc(OC)c2[O-])c1[O-].[Cl-].[Mn+3] [EUK-134]

>  <cell viability / %>
99.3

$$$$
>  <Compound>
Oc1c(I)cc(I)cc1I [AM-24]

>  <cell viability / %>
101

$$$$
>  <Compound>
CCCCCCC(=O)OC1CC(C)(C)NC(C)(C)C1 [TMPH]

>  <cell viability / %>
98.7

$$$$
>  <Compound>
Clc1ccc(C(OCCN2CCCCC2)c2ccccc2)cc1 (centres undefined) [cloperastine]

>  <cell viability / %>
100

$$$$

Would you be so kind as to report cell viability for each listed record?
1. OC[C@@H](O)[C@H]1O[C@@H]2O[C@H](C(Cl)(Cl)Cl)O[C@@H]2[C@H]1O [chloralose]
2. O=C(O)c1ccc(NC(=O)[C@H](Cc2ccc(O)cc2)NC(=O)c2ccccc2)cc1 [bentiromide]
3. N=C(N)NCCC[C@H](N)C(=O)O [L-arginine]
4. N=C(N)SCCc1ccc(OCc2ccc([N+](=O)[O-])cc2)cc1 [KB-R7943]

1. 98.8
2. 95
3. 99.3
4. 98.4

Would you be so kind as to report cell viability for each listed record?
1. O=C1c2c(O)cccc2Cc2cccc(O)c21 [anthralin]
2. CC(C)=CCc1c(O)cc(O)c2c(=O)c(O)c(-c3ccc(C(F)(F)F)cc3)oc12 [SNG-1153]
3. Cc1cc(N2CCN([C@@H]3CN[C@H](C(=O)N4CCSC4)C3)CC2)n(-c2ccccc2)n1 [teneligliptin]
4. COc1ccc(O)cc1 [mequinol]
5. OC(CCN1CCCCC1)(c1ccccc1)C1CCCCC1 (centres undefined) [trihexyphenidyl]

[108, 68.1, 102, 92.8, 85.6]

Would you be so kind as to report cell viability for each listed record?
1. COc1ccc(CC2NCCc3c2[nH]c2ccc(C)cc32)c(Cl)c1OC (centres undefined)
2. O=C1C[C@@]2(C(=O)N1)C(=O)N(Cc1ccc(Br)cc1F)C(=O)c1cccn12 [ranirestat]
3. Cc1cccc(C)c1-n1c(=O)c2cnc(Nc3ccc(N4CCN(C)CC4)cc3)nc2n2c3ccccc3nc12 [TC-S-7003]

66.8
95.8
5.2

In plain terms, CCN(CC)CC1CCCCN1CC(=O)N1c2ccccc2C(=O)Nc2cccnc21 (centres undefined) [otenzepad] has a documented cell viability of 101
